I'd appreciate it if you could supply Ki values for the items below.
target: human glucocorticoid receptor protein (GR) (Homo sapiens, UniProt P04150); construct: made in house; host or cells: Spodoptera frugiperda Sf21 insect cells (baculovirus); assay: Glucocorticoid receptor binding assay ([3H]dexamethasone competition, GR lysate)

Endpoint output: Ki of COc1c(O)ccc2c1-c1ccc3c(c1/C(=C/c1ccccc1F)O2)C(C)=CC(C)(C)N3 . Value?
< 1 nM

Now the same for COc1c(O)ccc2c1-c1ccc3c(c1/C(=C/c1cccc(OC(F)(F)F)c1)O2)C(C)=CC(C)(C)N3
> 3 nM

Now the same for COc1c(O)ccc2c1-c1ccc3c(c1/C(=C/c1cccc(C(F)(F)F)c1)O2)C(C)=CC(C)(C)N3
1 to 2 nM

Now the same for COc1c(O)ccc2c1-c1ccc3c(c1/C(=C/c1sccc1C(=O)N1CCC(=O)CC1)O2)C(C)=CC(C)(C)N3
1 to 2 nM

Now the same for COc1c(O)ccc2c1-c1ccc3c(c1/C(=C/c1oc(C)cc1C(=O)N(C)C)O2)C(C)=CC(C)(C)N3
> 3 nM

----------
target: human glucocorticoid receptor protein (GR) (Homo sapiens, UniProt P04150); construct: made in house; host or cells: Spodoptera frugiperda Sf21 insect cells (baculovirus); assay: Glucocorticoid receptor binding assay ([3H]dexamethasone competition, GR lysate); settings: competition with 2-4 nM [3H]dexamethasone, 16 hours at 4° C., Cheng-Prusoff; read-out: Ki
pKi: −log10 of the molar value.
I'd appreciate it if you could supply pKi values for the items below.

Short answer please: pKi, human glucocorticoid receptor protein (GR) (Homo sapiens, UniProt P04150), entry COc1c(O)ccc2c1-c1ccc3c(c1/C(=C/c1sccc1C(C)O)O2)C(C)=CC(C)(C)N3 (racemic)
8.70 to 9.00

Now the same for C=CCC(O)c1ccsc1C=C1Oc2ccc(O)c(OC)c2-c2ccc3c(c21)C(C)=CC(C)(C)N3 (single isomer, unassigned; (+)) [Compound 200]
8.70 to 9.00

Now the same for CC#CCOCc1ccsc1/C=C1\Oc2ccc(O)c(OC)c2-c2ccc3c(c21)C(C)=CC(C)(C)N3
8.70 to 9.00

Now the same for COc1c(O)ccc2c1-c1ccc3c(c1/C(=C/c1ccccc1C#N)O2)C(C)=CC(C)(C)N3
> 9.00

----------
Molecular target: human glucocorticoid receptor protein (GR) (Homo sapiens, UniProt P04150)
Construct: made in house; host or cells: Spodoptera frugiperda Sf21 insect cells (baculovirus)
Sequence (P04150 1-777): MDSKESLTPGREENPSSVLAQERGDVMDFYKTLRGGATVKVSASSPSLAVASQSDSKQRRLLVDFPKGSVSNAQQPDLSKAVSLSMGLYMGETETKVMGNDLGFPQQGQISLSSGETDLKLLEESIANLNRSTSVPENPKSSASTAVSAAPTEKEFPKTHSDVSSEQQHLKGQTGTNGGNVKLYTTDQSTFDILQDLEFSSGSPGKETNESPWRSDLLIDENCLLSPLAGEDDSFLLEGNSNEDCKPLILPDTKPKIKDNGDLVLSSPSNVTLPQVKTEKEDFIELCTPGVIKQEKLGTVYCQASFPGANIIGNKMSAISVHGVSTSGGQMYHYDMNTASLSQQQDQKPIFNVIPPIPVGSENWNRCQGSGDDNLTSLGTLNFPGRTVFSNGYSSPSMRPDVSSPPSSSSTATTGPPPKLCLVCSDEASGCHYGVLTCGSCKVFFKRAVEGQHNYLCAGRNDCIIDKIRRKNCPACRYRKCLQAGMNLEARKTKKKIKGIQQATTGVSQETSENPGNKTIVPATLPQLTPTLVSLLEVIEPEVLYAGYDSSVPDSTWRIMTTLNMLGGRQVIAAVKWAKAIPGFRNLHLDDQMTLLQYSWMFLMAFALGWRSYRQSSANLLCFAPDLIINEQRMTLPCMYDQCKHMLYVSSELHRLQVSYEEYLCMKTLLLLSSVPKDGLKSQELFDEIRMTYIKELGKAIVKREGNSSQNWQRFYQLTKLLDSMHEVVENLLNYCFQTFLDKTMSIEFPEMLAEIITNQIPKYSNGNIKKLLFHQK
Experiment: Glucocorticoid receptor binding assay ([3H]dexamethasone competition, GR lysate)
Settings: competition with 2-4 nM [3H]dexamethasone, 16 hours at 4° C., Cheng-Prusoff; read-out: Ki
Method: A baculovirus expression plasmid containing cDNA encoding the human glucocorticoid receptor protein (GR) was prepared using standard techniques. […] The assay samples were then centrifuged and the supernatants were discarded. […] Radioactivity in counts per minute (CPM) of each washed pellet was determined by liquid scintillation counter (MicroBeta™, Wallach). Specific binding for a particular sample was calculated using the equation: (Sample CPM)−(Average Non-specific CPM) […]
pKi: −log10 of the molar value.
I'd appreciate it if you could supply pKi values for the items below.

Short answer please: pKi, human glucocorticoid receptor protein (GR) (Homo sapiens, UniProt P04150), entry C=Cc1ccc(/C=C2\Oc3ccc(O)c(OC)c3-c3ccc4c(c32)C(C)=CC(C)(C)N4)cc1
8.70 to 9.00

Now the same for COc1c(O)ccc2c1-c1ccc3c(c1/C(=C/c1sccc1C(=O)N(C)C)O2)C(C)=CC(C)(C)N3
8.70 to 9.00

Now the same for COCCN(CCOC)C(=O)c1ccsc1/C=C1\Oc2ccc(O)c(OC)c2-c2ccc3c(c21)C(C)=CC(C)(C)N3
8.70 to 9.00

Now the same for COc1c(O)ccc2c1-c1ccc3c(c1/C(=C/c1cccc4ccccc14)O2)C(C)=CC(C)(C)N3
< 8.52

Now the same for CCN(CC)C(=O)c1ccccc1/C=C1\Oc2ccc(O)c(OC)c2-c2ccc3c(c21)C(C)=CC(C)(C)N3
> 9.00

Now the same for COc1c(O)ccc2c1-c1ccc3c(c1/C(=C/c1sccc1C(O)C(F)(F)F)O2)C(C)=CC(C)(C)N3 (racemic)
8.70 to 9.00

Now the same for COc1c(O)ccc2c1-c1ccc3c(c1/C(=C/c1sccc1CNC1CC1)O2)C(C)=CC(C)(C)N3
8.52 to 8.70

Now the same for COc1c(O)ccc2c1-c1ccc3c(c1/C(=C/c1ccc(F)cc1S(=O)(=O)N(C)C)O2)C(C)=CC(C)(C)N3
8.70 to 9.00

Now the same for COc1c(O)ccc2c1-c1ccc3c(c1/C(=C/c1ccccc1C(=O)N1CCCC1)O2)C(C)=CC(C)(C)N3
> 9.00

Now the same for COc1c(O)ccc2c1-c1ccc3c(c1/C(=C/c1cc(F)ccc1C)O2)C(C)=CC(C)(C)N3
> 9.00
